Taken from ChEMBL document CHEMBL4130363.

molecular target: Delta-type opioid receptor (Homo sapiens) (UniProt P41143); test: Antagonist activity at human delta-type opioid receptor assessed as inhibition of agonist-induced effect at 10 uM by GTPgamma[35S] binding-based assay; assay type: functional
Sequence (P41143 whole entry): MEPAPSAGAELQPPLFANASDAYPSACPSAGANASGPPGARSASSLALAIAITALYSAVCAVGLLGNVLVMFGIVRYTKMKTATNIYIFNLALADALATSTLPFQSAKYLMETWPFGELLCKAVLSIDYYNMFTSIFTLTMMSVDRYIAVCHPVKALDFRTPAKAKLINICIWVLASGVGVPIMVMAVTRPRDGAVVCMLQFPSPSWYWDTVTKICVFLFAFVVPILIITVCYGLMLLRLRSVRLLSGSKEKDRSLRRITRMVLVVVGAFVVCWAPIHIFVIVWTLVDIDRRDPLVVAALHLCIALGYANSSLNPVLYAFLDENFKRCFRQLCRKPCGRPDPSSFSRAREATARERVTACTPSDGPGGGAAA
Reported Property: inhibition (%)
Provide the reading as a plain figure in %.

Sample answers from the record:
Entry Smiles	Target Under Test	Reported Property	Meas Value
CN(CCCNC(=O)c1ccc(Cl)cc1)CCc1ccccc1	Delta-type opioid receptor (Homo sapiens) (UniProt P41143)	inhibition	6
CN(CCCNC(=O)c1cccc(Br)c1)Cc1ccccc1	Delta-type opioid receptor (Homo sapiens) (UniProt P41143)	inhibition	7
CN(CCNC(=O)c1ccc(C#N)cc1)Cc1ccccc1	Delta-type opioid receptor (Homo sapiens) (UniProt P41143)	inhibition	0

inhibition for CN(CCCNC(=O)c1ccc(Br)cc1)Cc1ccccc1 ?
-5
